# system: T1, human IGF1R extracellular domain, His-tagged (human, UniProt P08069 31-932)
# T1 construct: Bought (R&D Systems 391-GR or Sino Biological 10164-H08H); also called recombinant IGF1R; ECD of IGF1R
# procedure details: ELISA on IGF1R protein, second experiment
Measured EC50, listed per entry for reference.
Kindly provide the numeric value in nM only, without the unit symbol.

Worked cases, answers included:
binder	EC50 [nM]
1564-VL(N95aD) (antibody, V domains shown) VH: EVQLLESGGGLVQPGGSLRLSCAASGFTFSSYDMSWVRQAPGKGLEWVSAISYDNGNTYYADSVKGRFTISRDNSKNTLYLQMNSLRAEDTAVYYCAKGVLTTLMNWFDYWGQGTLVTVSS VL: QSVLTQPPSASGTPGQRVTISCTGSSSNIGSNDVSWYQQLPGTAPKLLIYANSNRPSGVSDRFSGSKSGTSASLAISGLRSEDEADYYCGAWDDSLDGYVFGGGTKLTVL	2.07
1564-VH(N54D) (antibody, V domains shown) VH: EVQLLESGGGLVQPGGSLRLSCAASGFTFSSYDMSWVRQAPGKGLEWVSAISYDDGNTYYADSVKGRFTISRDNSKNTLYLQMNSLRAEDTAVYYCAKGVLTTLMNWFDYWGQGTLVTVSS VL: QSVLTQPPSASGTPGQRVTISCTGSSSNIGSNDVSWYQQLPGTAPKLLIYANSNRPSGVPDRFSGSKSGTSASLAISGLRSEDEADYYCGAWDDSLNGYVFGGGTKLTVL	2.89
1564-VH(N54Q) (antibody, V domains shown) VH: EVQLLESGGGLVQPGGSLRLSCAASGFTFSSYDMSWVRQAPGKGLEWVSAISYDQGNTYYADSVKGRFTISRDNSKNTLYLQMNSLRAEDTAVYYCAKGVLTTLMNWFDYWGQGTLVTVSS VL: QSVLTQPPSASGTPGQRVTISCTGSSSNIGSNDVSWYQQLPGTAPKLLIYANSNRPSGVPDRFSGSKSGTSASLAISGLRSEDEADYYCGAWDDSLNGYVFGGGTKLTVL	2.2

Which EC50 is reported for this binder? 1564 clone (anti-IGF1R antibody, format not stated) (antibody, V domains shown) VH: EVQLLESGGGLVQPGGSLRLSCAASGFTFSSYDMSWVRQAPGKGLEWVSAISYDNGNTYYADSVKGRFTISRDNSKNTLYLQMNSLRAEDTAVYYCAKGVLTTLMNWFDYWGQGTLVTVSS VL: QSVLTQPPSASGTPGQRVTISCTGSSSNIGSNDVSWYQQLPGTAPKLLIYANSNRPSGVPDRFSGSKSGTSASLAISGLRSEDEADYYCGAWDDSLNGYVFGGGTKLTVL 2.66

Where these numbers come from: patent US20240101687A1
